So I've got a bunch of molecules here, and I need their Activity values.
- Species: Homo sapiens
- Experimental Details: Inhibition of transglutaminase in human keratinocytes assessed as mean transglutaminase activity level at 1 10^-5M in presence of 10 uM retinal relative to retinal alone
- Format: cell-based
- Set-up: scale not given: the % may be the effect or the level left
Please answer in the form of a number followed by its unit of measurement.

Given the entry CC1(C)[C@@H](O)CC[C@]2(C)[C@H]3C(=O)C=C4[C@@H]5C[C@@](C)(C(=O)O)CC[C@]5(C)CC[C@@]4(C)[C@]3(C)CC[C@@H]12 , report its measured Activity.
0.7%

Same question for CCCCCCCC/C=C\CCCCCCCCCCCCCC(=O)N[C@@H](COP(=O)([O-])OCC[N+](C)(C)C)[C@H](O)/C=C/CCCCCCCCCCCCC please.
77.8%

Param item: COc1cc(NS(C)(=O)=O)ccc1Nc1c2ccccc2nc2ccccc12
1.8%

Now this one: CC1(C)[C@@H](OC(=O)CCC(=O)O)CC[C@]2(C)[C@H]3C(=O)C=C4[C@@H]5C[C@@](C)(C(=O)O)CC[C@]5(C)CC[C@@]4(C)[C@]3(C)CC[C@@H]12
27.3%

* * *

- System: Diacylglycerol O-acyltransferase 1 (Bos taurus) (UniProt Q8MK44);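 also: ARAT activity in bovine RPE microsomes with retinol as substrate and dilauroyl phosphatidylcholine present, 5 min incubation, HPLC readout, inhibition expressed versus control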
- Sequence (whole entry): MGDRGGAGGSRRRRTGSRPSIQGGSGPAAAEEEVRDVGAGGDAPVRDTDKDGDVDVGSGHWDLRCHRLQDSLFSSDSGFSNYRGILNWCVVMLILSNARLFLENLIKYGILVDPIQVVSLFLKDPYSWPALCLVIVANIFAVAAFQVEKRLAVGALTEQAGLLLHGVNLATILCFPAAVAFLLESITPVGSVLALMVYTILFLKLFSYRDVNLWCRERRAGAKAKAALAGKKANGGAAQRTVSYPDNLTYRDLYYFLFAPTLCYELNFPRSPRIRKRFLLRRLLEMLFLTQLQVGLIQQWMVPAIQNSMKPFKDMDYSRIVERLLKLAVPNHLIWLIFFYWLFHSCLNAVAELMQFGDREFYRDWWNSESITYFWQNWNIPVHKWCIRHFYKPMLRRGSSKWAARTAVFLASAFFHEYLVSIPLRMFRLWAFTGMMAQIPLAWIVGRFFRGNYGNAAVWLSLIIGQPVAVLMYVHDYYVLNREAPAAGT
- Reported Conditions: at 100 µM
- Description: Inhibition of ARAT in bovine RPE microsomes at 100 uM using retinol substrate in presence of dilauroyl-phosphatidyl choline incubated for 5 mins by HPLC analysis relative to control
Kindly supply the reported inhibition values for the records listed here.
Give the figure together with its unit, number first.

Can you share its inhibition? I mean this compound: CC(=O)C1(C)C2CC3C(C2)C31C (stereo unspecified)
23%

And the next one, CCCCC/C=C\C/C=C\CCCCCCCC(=O)NC(C)c1ccccc1 (stereo unspecified) ?
64%

Moving on to CC1=CC[C@H](CC[C@H](C)CO)C1(C)C
70%

Do the same for C/C=C\C(=O)C1C(C)=CCCC1(C)C (stereo unspecified) please
83%

Next compound up: CCCCCCCCCCCC(=O)NCCC[N+](C)(C)CC(=O)[O-]
25%

Check C/C=C/C(=O)C1=C(C)CC(C)(C)CC1 too.
80%

Subsequent entry: CC(C)=CCCC(C)=CCCC(C)=CCO
53%

Try this compound next: CC1=CCCC(C)(C)C1/C=C/C(=O)CC(C)C (stereo unspecified)
8%

Now the same for CC(C)=CCC/C(C)=C/CC/C(C)=C/CC/C(C)=C/CO
81%

Also check CCCCC/C=C\C/C=C\CCCCCCCC(=O)N(CCO)CCO
43%

Also C/C=C/C(=O)C1=C(C)C=CCC1(C)C , if possible.
70%

Values were extracted from ChEMBL document CHEMBL4420071.
